System: CCRF-CEM/VM1
METHOD DESCRIPTION: cells
Format: cell-based, human
CONDITION PARAMETERS: Table 6; single determinations; read-out: IC50
pIC50: −log10 of the molar value.
Rule: Yes for pIC50 not less than 5, No for anything less.

A selection of reference data follows.
- MOLECULE: "C/C(=C\\c1csc(C)n1)[C@@H]1C/C=C\\CCCC[C@H](O)[C@@H](C)C(=O)C(C)(C)[C@@H](O)CC(=O)O1"
  CLASSIFICATION: "Yes"
- MOLECULE: "C/C(=C\\c1csc(C)n1)[C@@H]1C[C@H]2O[C@H]2CCCC[C@H](O)[C@@H](C)C(=O)C(C)(C)[C@@H](O)CC(=O)O1"
  CLASSIFICATION: "Yes"
- MOLECULE: "CC(=Cc1csc(C)n1)C1CC2OC2CCCC(C)C(O)C(C)C(=O)C(C)(C)C(O)CC(=O)O1 (stereo not drawn)"
  CLASSIFICATION: "No"
- MOLECULE: "CC1=CCC(C(C)=Cc2csc(C)n2)OC(=O)CC(O)C(C)(C)C(=O)C(C)C(O)C(C)CCC1 (stereo not drawn)"
  CLASSIFICATION: "Yes"

Decide: is the reported value of pIC50 for C/C(=C\c1csc(C)n1)C1CC2OC2CCCCC(O)C(C)C(=O)C(C)(C)C(O)CC(=O)O1 (stereo not drawn) equal to or greater than 5?
Yes

Decide: is the reported value of pIC50 for C/C1=C/C[C@@H](/C(C)=C/c2csc(C)n2)OC(=O)C[C@H](O)C(C)(C)C(=O)[C@H](C)[C@@H](O)[C@@H](C)CCC1 equal to or greater than 5?
Yes

Decide: is the reported value of pIC50 for CC(=Cc1csc(C)n1)C1CC=CCCCC(C)C(O)C(C)C(O)C(C)(C)C(O)CC(=O)O1 (stereo not drawn) equal to or greater than 5?
No

----------
Tested on: PC-3 Human Prostate Carcinoma
METHOD DESCRIPTION: PC-3 xenograft
Type: in vivo, nude mice
CONDITION PARAMETERS: initial weight; dEpoB 30 mg/kg 18 hr i.v. infusion, Taxol 16 mg/kg 6 hr infusion, VBL 2 and VP-16 25 mg/kg i.v. inj
Where a name gives a salt, the structure may show the parent alone.
READOUT NAME: Average Body Weight, Day 5 (g)
Quick reminder: number only, in g, skip the unit.

- MOLECULE: "CC(=O)O[C@H]1C(=O)[C@@]2(C)[C@H]([C@H](OC(=O)c3ccccc3)[C@]3(O)C[C@H](OC(=O)[C@H](O)[C@@H](NC(=O)c4ccccc4)c4ccccc4)C(C)=C1C3(C)C)[C@]1(OC(C)=O)CO[C@@H]1C[C@@H]2O [Taxol ®, paclitaxel]"
  MEASURE UNIT: "g"
  Average Body Weight, Day 5: 26.6
- MOLECULE: "C/C1=C/C[C@@H](/C(C)=C/c2csc(C)n2)OC(=O)C[C@H](O)C(C)(C)C(=O)[C@H](C)[C@@H](O)[C@@H](C)CCC1 [Desoxyepothilone B, desoxyepothilone B]"
  MEASURE UNIT: "g"
  Average Body Weight, Day 5: 29.4

Quote Average Body Weight, Day 5 reported for CC[C@]1(O)C[C@@H]2CN(CCc3c([nH]c4ccccc34)[C@@](C(=O)OC)(c3cc4c(cc3OC)N(C)[C@H]3[C@@](O)(C(=O)OC)[C@H](OC(C)=O)[C@]5(CC)C=CCN6CC[C@]43[C@@H]65)C2)C1 [Vinblastine, Vinblastine sulfate] please.
23.5

Quote Average Body Weight, Day 5 reported for COc1cc([C@@H]2c3cc4c(cc3[C@@H](O[C@@H]3O[C@@H]5CO[C@@H](C)O[C@H]5[C@H](O)[C@H]3O)[C@H]3COC(=O)[C@H]23)OCO4)cc(OC)c1O [Etoposide, etoposide] please.
24.9

----------
Tumor Disappearance: recorded values
System: A549 Human Lung Carcinoma
METHOD DESCRIPTION: A549 xenograft
Format: in vivo, nude mice
CONDITION PARAMETERS: Q2D x 3: dEpoB 30 mg/kg 18 hr i.v. infusion, Taxol 15 mg/kg 6 hr infusion, VBL 2 and VP-16 25 mg/kg i.v. inj
Counter-ions that a name gives are not always drawn.

Quote Tumor Disappearance reported for C/C1=C/C[C@@H](/C(C)=C/c2csc(C)n2)OC(=O)C[C@H](O)C(C)(C)C(=O)[C@H](C)[C@@H](O)[C@@H](C)CCC1 please.
1/3

Quote Tumor Disappearance reported for COc1cc([C@@H]2c3cc4c(cc3[C@@H](O[C@@H]3O[C@@H]5CO[C@@H](C)O[C@H]5[C@H](O)[C@H]3O)[C@H]3COC(=O)[C@H]23)OCO4)cc(OC)c1O [Etoposide, etoposide] please.
0/3

Quote Tumor Disappearance reported for CC(=O)O[C@H]1C(=O)[C@@]2(C)[C@H]([C@H](OC(=O)c3ccccc3)[C@]3(O)C[C@H](OC(=O)[C@H](O)[C@@H](NC(=O)c4ccccc4)c4ccccc4)C(C)=C1C3(C)C)[C@]1(OC(C)=O)CO[C@@H]1C[C@@H]2O please.
2/4

Quote Tumor Disappearance reported for CC[C@]1(O)C[C@@H]2CN(CCc3c([nH]c4ccccc34)[C@@](C(=O)OC)(c3cc4c(cc3OC)N(C)[C@H]3[C@@](O)(C(=O)OC)[C@H](OC(C)=O)[C@]5(CC)C=CCN6CC[C@]43[C@@H]65)C2)C1 [Vinblastine, Vinblastine sulfate] please.
2/3

----------
System: CCRF-CEM human T-cell acute lymphoblastic leukemia cell line
METHOD DESCRIPTION: XTT cytotoxicity (cell growth inhibition), CCRF-CEM
CONDITION PARAMETERS: read-out: IC50 (A); Table 2A; parent cell line
pIC50: recorded values
Scale: negative log10 of molar concentration, which is what pIC50 denotes.

Some entries whose results are on file:
- COMPOUND: "CC(=Cc1csc(C)n1)C1CC=CCCCC(C)C(O)C(C)C(O)C(C)(C)C(O)CC(=O)O1 (stereo not shown)"
  OBSERVED MEASUREMENT: 4.85
- COMPOUND: "CC(=Cc1csc(C)n1)C1CC2OC2CC=CCCCCC(C)(C)CCC(=O)O1 (stereo not shown)"
  OBSERVED MEASUREMENT: 3.57
- COMPOUND: "C/C(=C\\c1csc(C)n1)[C@@H]1C/C=C\\CCC[C@H](C)[C@H](O)[C@@H](C)C(=O)C(C)(C)[C@@H](O)CC(=O)O1"
  OBSERVED MEASUREMENT: 7.66

--- query ---
Quote pIC50 reported for C/C(=C\c1csc(C)n1)[C@@H]1C[C@@H]2O[C@@H]2CCC[C@H](C)[C@H](O)[C@@H](C)C(=O)C(C)(C)[C@@H](O)CC(=O)O1 please.
8.49

----------
Tested on: DC-3F hamster lung fibroblast cell line
METHOD DESCRIPTION: SRB cytotoxicity, DC-3F
Format: cell-based
CONDITION PARAMETERS: Table 3; read-out: IC50
Starred links: 1 amine or outer side, 2 acyl side, 3 side chain; linkers in the order of their positions; H or OH if unused. Positions of bridges follow the written chain, without caps; N, C: chain ends. Non-standard residues stand in square brackets, D forms with d. Residues, ends and D or L forms follow the SMILES beside them. Chains are numbered I, II in the order given. Actinocin(9to1) = Cc1c2oc3c(C)ccc(C(=O)[*:1])c3nc-2c(C(=O)[*:2])c(N)c1=O; NMeV = CN[C@H](C(=O)O)C(C)C; Sar = CNCC(=O)O
READOUT NAME: IC50 (nM)
Quick reminder: number only, in nM, skip the unit.

Some entries whose results are on file:
- COMPOUND: "CC(=Cc1csc(C)n1)C1CC2OC2CC=CCCCCC(C)(C)CCC(=O)O1 (stereo not drawn) [#3]"
  MEASURE UNIT: "nM"
  IC50: 9520
- COMPOUND: "CC(=Cc1csc(C)n1)C1CC=CCCCC(C)C(O)C(C)C(O)C(C)(C)C(O)CC(=O)O1 (stereo not drawn) [#2]"
  MEASURE UNIT: "nM"
  IC50: 10300
- COMPOUND: "Cc1c2oc3c(C)ccc(C(=O)N[C@@H]4C(=O)N[C@H](C(C)C)C(=O)N5CCC[C@H]5C(=O)N(C)CC(=O)N(C)[C@@H](C(C)C)C(=O)O[C@@H]4C)c3nc-2c(C(=O)N[C@@H]2C(=O)N[C@H](C(C)C)C(=O)N3CCC[C@H]3C(=O)N(C)CC(=O)N(C)[C@@H](C(C)C)C(=O)O[C@@H]2C)c(N)c1=O [Actinomycin D, actinomycin D] (I: T[dV]P[Sar][NMeV] / II: T[dV]P[Sar][NMeV]; ester I:1-I:C, II:1-II:C; linker I:N-II:N via Actinocin(9to1))"
  MEASURE UNIT: "nM"
  IC50: 0.058
- COMPOUND: "C/C(=C\\c1csc(C)n1)[C@@H]1C/C=C\\CCC[C@H](C)[C@H](O)[C@@H](C)C(=O)C(C)(C)[C@@H](O)CC(=O)O1 [Desoxyepothilone A, desoxyepothilone A]"
  MEASURE UNIT: "nM"
  IC50: 10.6
- COMPOUND: "C/C(=C\\c1csc(C)n1)[C@@H]1C[C@@H]2O[C@@H]2CCC[C@H](C)[C@H](O)[C@@H](C)C(=O)C(C)(C)[C@@H](O)CC(=O)O1 [EPOTHILONE A NATURAL, epothilone A]"
  MEASURE UNIT: "nM"
  IC50: 3.68

--- query ---
Quote IC50 reported for C/C(=C\c1csc(C)n1)[C@@H]1C[C@@H]2O[C@@H]2CCC[C@H](C)[C@H](O)[C@@H](C)C(=O)C(C)(C)[C@@H](O)CC(=O)O1 [EPOTHILONE A SYNTHETIC, epothilone A] please.
3.54

From: patent US6603023B2
